target entity: Tyrosinase (Agaricus bisporus)
Sequence (O42713 whole entry): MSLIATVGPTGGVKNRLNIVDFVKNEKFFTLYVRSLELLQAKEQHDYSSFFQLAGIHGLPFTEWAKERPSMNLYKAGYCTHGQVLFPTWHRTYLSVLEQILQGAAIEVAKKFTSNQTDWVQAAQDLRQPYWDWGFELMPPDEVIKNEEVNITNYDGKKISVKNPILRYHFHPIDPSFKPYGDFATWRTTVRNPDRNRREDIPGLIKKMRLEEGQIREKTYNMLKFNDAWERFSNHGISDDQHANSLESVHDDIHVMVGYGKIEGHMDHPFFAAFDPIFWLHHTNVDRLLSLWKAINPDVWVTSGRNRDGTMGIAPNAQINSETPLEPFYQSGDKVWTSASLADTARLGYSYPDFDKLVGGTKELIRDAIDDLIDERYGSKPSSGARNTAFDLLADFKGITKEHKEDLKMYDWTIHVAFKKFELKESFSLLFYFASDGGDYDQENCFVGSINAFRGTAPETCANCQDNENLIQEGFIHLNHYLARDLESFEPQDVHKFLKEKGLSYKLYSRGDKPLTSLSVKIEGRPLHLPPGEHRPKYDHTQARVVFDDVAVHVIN
So I've got a bunch of molecules here, and I need their log10(IC50) values.
Values reflect log10 of reported IC50 (µM).

Would you be so kind as to report log10(IC50) for each listed record?
1. O=C1NC(=O)C(=Cc2ccc(O)c(O)c2)C(=O)N1
2. O=C1NC(=S)NC(=O)C1=Cc1cc(O)c(O)c(O)c1
3. COc1cc(C=C2C(=O)NC(=S)NC2=O)ccc1O
4. COc1ccc(C=C2C(=O)NC(=O)NC2=O)cc1
5. O=C1NC(=O)C(=Cc2ccc(O)cc2O)C(=O)N1

Reply:
[0.18, 0.85, 0.89, 2.00, 1.24]
